# tested_on: UniProt:Q14416
# Sequence (Q14416 whole entry): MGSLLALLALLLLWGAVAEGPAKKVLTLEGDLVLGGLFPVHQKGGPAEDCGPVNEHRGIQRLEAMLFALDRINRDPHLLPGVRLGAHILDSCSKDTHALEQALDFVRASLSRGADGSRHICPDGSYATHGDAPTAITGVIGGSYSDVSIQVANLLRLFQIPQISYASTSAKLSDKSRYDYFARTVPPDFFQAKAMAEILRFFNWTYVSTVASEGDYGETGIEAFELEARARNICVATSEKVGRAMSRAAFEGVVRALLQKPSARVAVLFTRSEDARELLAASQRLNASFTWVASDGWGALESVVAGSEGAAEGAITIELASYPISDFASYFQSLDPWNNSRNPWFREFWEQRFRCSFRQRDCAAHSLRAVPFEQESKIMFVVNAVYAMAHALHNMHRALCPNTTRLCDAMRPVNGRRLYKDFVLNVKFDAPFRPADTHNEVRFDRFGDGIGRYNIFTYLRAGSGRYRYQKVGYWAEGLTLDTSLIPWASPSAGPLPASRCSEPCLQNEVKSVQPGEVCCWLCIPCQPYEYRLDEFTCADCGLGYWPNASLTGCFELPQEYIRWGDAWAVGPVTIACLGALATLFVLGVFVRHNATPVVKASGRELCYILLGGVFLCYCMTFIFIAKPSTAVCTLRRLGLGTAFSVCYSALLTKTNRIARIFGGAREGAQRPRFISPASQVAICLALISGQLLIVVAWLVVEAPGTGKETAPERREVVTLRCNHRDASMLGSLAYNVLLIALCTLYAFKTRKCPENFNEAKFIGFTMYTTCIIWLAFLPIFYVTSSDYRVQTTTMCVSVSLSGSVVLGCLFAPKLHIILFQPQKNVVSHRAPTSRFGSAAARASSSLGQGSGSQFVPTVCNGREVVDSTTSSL
# procedure_summary: Binding affinity towards human metabotropic glutamate receptor 2 determined by [35S]GTP gamma S binding assay
# Assay type: functional
pEC50: −log10 of the molar value.
Classify by measured pEC50: 1.0 if it is equal to or exceeds 6, 0.0 if it is smaller.

**Query** Does the compound Cc1c(OCCCCOc2ccncc2)ccc(C(=O)CC(C)C)c1O have recorded pEC50 that is 6 or more?
**Result** 0.0

**Query** Has Cc1c(OCCCCOc2ccccn2)ccc(C(=O)CC(C)C)c1O a recorded pEC50 greater than or equal to 6?
**Result** 0.0

**Query** Record Cc1c(OCc2ccc(Sc3ccncc3)cc2)ccc(C(=O)CC(C)(C)C)c1O ; criterion: pEC50 no lower than 6. Met?
**Result** 1.0
